- Organism: Rattus norvegicus
- test name: Inhibition of rat protein farnesyltransferase at 5000 nM
Is inhibition at least 80%? Then Met. If not, Not met.

- compound: "Cn1cnc(S(=O)(=O)N(CC(=O)NC(C)(C)C)C2Cc3cc(C#N)ccc3N(Cc3cncn3C)C2=O)c1 (stereo unspecified)"
  category: "Met"
- compound: "Cn1cnc(S(=O)(=O)N(Cc2ccc(S(C)(=O)=O)cc2)C2Cc3cc(C#N)ccc3N(Cc3cncn3C)C2=O)c1 (stereo unspecified)"
  category: "Not met"
- compound: "Cn1cnc(S(=O)(=O)N(Cc2ccc(S(C)(=O)=O)cc2)C2Cc3cc(Br)ccc3N(Cc3cncn3C)C2=O)c1 (stereo unspecified)"
  category: "Not met"
- compound: "Cn1cnc(S(=O)(=O)N(CC(=O)OC(C)(C)C)C2Cc3cc(C#N)ccc3N(Cc3cncn3C)C2=O)c1 (stereo unspecified)"
  category: "Met"
- compound: "Cn1cnc(S(=O)(=O)N(Cc2ccccc2)C2Cc3cc(C#N)ccc3N(Cc3cncn3C)C2=O)c1 (stereo unspecified)"
  category: "Not met"
- compound: "Cn1cnc(S(=O)(=O)N(Cc2ccc(-n3cccn3)cc2)C2Cc3cc(C#N)ccc3N(Cc3cncn3C)C2=O)c1 (stereo unspecified)"
  category: "Met"
